# target system: hERG (Homo sapiens (Human))
# run description: Human ERG (hERG) assay, hERG currents in hERG-expressing CHO cells
# Format: cell-based
# condition set: selected reference compounds, CHO cells
pIC50: −log10 of the molar value.
quantity: pIC50

INSERT INTO measurements (compound, reading) VALUES
  ('CNC[C@H](c1ccc2ccccc2c1)[C@H](O)c1ccccc1 [compound 173]', 5.06),
  ('CNC[C@@H](c1ccc2ccccc2c1)[C@H](O)c1ccccc1 [compound 180]', 4.49);

----------
# key: entry, value: pIC50
# target system: CYP3A4 (Homo sapiens (Human), UniProt P08684)
# Sequence (P08684 whole entry): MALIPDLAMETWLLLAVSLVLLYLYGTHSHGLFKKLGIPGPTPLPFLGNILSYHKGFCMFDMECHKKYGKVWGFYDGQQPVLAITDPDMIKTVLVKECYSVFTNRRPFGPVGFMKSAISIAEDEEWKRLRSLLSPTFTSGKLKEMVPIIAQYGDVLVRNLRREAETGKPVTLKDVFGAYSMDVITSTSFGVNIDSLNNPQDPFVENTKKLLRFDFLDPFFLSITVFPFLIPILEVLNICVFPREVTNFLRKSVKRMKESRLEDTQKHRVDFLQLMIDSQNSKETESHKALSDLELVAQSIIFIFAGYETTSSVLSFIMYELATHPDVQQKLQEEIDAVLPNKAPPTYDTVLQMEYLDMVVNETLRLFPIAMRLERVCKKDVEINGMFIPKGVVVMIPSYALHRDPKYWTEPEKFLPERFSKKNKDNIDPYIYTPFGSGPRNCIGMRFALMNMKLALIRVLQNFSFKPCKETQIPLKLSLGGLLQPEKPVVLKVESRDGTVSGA
# run description: Cytochrome P450 inhibition assay, recombinant CYP3A4 (BFC substrate)
# Assay type: in vitro ADME
# condition set: recombinant enzyme
pIC50: −log10 of the molar value.
quantity: pIC50

INSERT INTO assay_data (compound, reading) VALUES
  ('CNC[C@H](c1ccc2ccccc2c1)[C@H](N)c1ccccc1', 6.03),
  ('CNC[C@@H](c1ccc(Cl)c(Cl)c1)[C@@H](OC)c1cccc(NS(=O)(=O)C(F)(F)F)c1', 6.70),
  ('NC[C@@H](Cc1ccccc1O)c1ccc2ccccc2c1', 5.00),
  ('CNCC(c1ccc2ccccc2c1)[C@@H](O)c1ccc(Cl)nc1 (some centres unmarked)', 4.70),
  ('CNC[C@H](c1ccc2ccccc2c1)[C@H](O)c1ccccc1C [Compound 28]', 5.02);

----------
# target system: CYP2D6 (Homo sapiens (Human))
# Sequence (P10635 whole entry): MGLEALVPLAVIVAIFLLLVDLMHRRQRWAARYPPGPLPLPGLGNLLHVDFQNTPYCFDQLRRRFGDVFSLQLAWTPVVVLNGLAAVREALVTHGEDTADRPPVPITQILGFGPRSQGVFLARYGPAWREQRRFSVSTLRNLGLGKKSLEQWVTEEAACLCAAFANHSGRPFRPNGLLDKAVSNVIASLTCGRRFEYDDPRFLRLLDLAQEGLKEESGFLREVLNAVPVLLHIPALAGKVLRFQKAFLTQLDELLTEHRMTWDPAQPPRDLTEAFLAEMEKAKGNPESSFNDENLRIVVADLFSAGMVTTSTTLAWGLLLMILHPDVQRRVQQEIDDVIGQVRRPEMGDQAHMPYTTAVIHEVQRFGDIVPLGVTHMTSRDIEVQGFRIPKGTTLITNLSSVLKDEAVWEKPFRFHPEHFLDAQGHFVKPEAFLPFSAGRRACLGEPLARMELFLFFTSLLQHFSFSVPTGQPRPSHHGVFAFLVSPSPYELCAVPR
# run description: Cytochrome P450 inhibition assay, recombinant CYP2D6 (MAMC substrate)
# Assay type: in vitro ADME
# condition set: recombinant enzyme
pIC50: −log10 of the molar value.
# key: entry, value: pIC50
quantity: pIC50

INSERT INTO assay_data (compound, reading) VALUES
  ('CNC[C@H](c1ccc(Cl)c(Cl)c1)[C@@H](O)c1ccccc1[N+](=O)[O-] [Compound 65]', 7.37),
  ('NC[C@@H](c1ccc2ccccc2c1)[C@@H](O)c1ccc(Cl)nc1 [Compound 126]', 5.41),
  ('CNC[C@@H](c1ccc2ccccc2c1)[C@@H](O)c1cncc(OC)c1 [Compound 122]', 5.47),
  ('CNC[C@H](c1ccc(Cl)c(Cl)c1)[C@H](O)c1cccc(N)c1 [Compound 24]', 5.85),
  ('CNC[C@H](c1ccc2ccccc2c1)[C@H](OCC(=O)N1CC[C@@H](O)C1)c1ccccc1 [Compound 34]', 4.92),
  ('C[C@](CN)(Cc1cccnc1)c1ccc2ccccc2c1 [Compound 42]', 5.96),
  ('CN(C)C[C@H](c1ccc(Cl)c(Cl)c1)[C@H](O)c1ccccc1 (racemic) [Compound 105]', 5.68),
  ('CNC[C@H](c1ccc(Cl)c(Cl)c1)[C@@H](O)c1ccccc1-c1cccs1 [Compound 100]', 7.19);

----------
# target system: hERG (Homo sapiens (Human), UniProt Q12809)
# Sequence (Q12809 whole entry): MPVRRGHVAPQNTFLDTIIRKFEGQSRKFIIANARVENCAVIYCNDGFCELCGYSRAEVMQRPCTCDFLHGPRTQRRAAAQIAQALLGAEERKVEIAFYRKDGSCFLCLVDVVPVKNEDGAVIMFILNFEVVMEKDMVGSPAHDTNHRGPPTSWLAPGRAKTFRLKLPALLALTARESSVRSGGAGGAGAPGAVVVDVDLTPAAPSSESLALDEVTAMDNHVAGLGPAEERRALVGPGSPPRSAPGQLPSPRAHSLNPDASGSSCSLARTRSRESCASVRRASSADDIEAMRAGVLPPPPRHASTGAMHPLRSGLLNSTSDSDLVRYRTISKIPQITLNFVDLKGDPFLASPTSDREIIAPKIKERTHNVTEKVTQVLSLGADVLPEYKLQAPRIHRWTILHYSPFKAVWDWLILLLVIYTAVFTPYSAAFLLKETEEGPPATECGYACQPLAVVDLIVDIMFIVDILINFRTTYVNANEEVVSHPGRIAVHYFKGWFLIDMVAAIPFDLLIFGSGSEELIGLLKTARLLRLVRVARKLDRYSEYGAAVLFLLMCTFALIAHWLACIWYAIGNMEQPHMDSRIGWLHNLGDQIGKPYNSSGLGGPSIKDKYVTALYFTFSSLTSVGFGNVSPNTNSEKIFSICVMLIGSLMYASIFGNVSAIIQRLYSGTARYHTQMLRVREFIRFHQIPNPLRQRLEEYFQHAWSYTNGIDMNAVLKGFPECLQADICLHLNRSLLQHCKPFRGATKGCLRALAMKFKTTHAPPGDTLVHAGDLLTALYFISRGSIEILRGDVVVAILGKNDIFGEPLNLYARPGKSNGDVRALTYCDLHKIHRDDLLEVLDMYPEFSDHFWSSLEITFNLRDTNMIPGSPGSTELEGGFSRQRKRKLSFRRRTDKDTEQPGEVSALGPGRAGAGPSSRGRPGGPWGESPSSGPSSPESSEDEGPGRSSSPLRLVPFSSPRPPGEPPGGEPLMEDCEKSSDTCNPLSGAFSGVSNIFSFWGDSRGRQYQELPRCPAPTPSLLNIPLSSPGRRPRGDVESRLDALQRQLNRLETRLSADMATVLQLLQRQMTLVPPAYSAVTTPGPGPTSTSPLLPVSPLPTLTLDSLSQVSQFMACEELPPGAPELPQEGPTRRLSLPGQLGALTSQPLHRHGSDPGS
# run description: Human ERG (hERG) assay, hERG currents in hERG-expressing CHO cells
# Format: cell-based
# condition set: hERG-expressing CHO cells
# key: entry, value: IC50
quantity: IC50 (µM)

INSERT INTO results (compound, target_system, quantity, reading) VALUES
  ('CNC[C@@H](c1ccc2ccccc2c1)[C@H](O)c1ccccc1F', 'hERG (Homo sapiens (Human), UniProt Q12809)', 'IC50', 33),
  ('CNC[C@H](c1ccc2ccccc2c1)[C@H](O)c1ccccc1F', 'hERG (Homo sapiens (Human), UniProt Q12809)', 'IC50', 12),
  ('CNC[C@H](c1ccc2ccccc2c1)[C@H](OCC(=O)NCCO)c1ccccc1', 'hERG (Homo sapiens (Human), UniProt Q12809)', 'IC50', 33),
  ('CNC[C@@H](c1ccc(Cl)c(Cl)c1)[C@@H](OC)c1cccc(NS(=O)(=O)C(F)(F)F)c1', 'hERG (Homo sapiens (Human), UniProt Q12809)', 'IC50', 4.7),
  ('CNCC(Cc1ccccc1O)c1ccc2ccccc2c1 (centres unmarked) [Compound 69]', 'hERG (Homo sapiens (Human), UniProt Q12809)', 'IC50', 9.5);
